For each record, write down the corresponding OD600 change.
Experiment: GFP drop in mixed WT/humanized-ribosome E. coli culture – GFP/RFP fluorescence, OD600, single point, bacterial rRNA inhibitor project, primary screen (AID 720706)
Conditions: E. coli WT GFP vs humanized-ribosome RFP mutants, 24 h; measured here: OD600 growth, DMSO median 0, no signal -100
Out of some 350,000 compounds screened, about 5,500 (1.6%) were called active. The list comes from a sample in which actives are over-represented; it also holds close analogues and randomly drawn compounds.

The examples below pair each entry with its known result.
[[record]]
molecule = "C[C@@H]1CN([C@@H](C)CO)S(=O)(=O)c2ccc(C#Cc3ccc(F)cc3)cc2O[C@@H]1CN(C)CC1CC1"
value_reported = "-6.33%"

[[record]]
molecule = "Cn1c(=O)n(C)c2cc(NS(=O)(=O)c3ccc(F)cc3)ccc21"
value_reported = "0.76%"

[[record]]
molecule = "CCc1nnc(NC(=O)C2CCN(C(=O)c3ccccc3C)CC2)s1"
value_reported = "6.36%"


Count: 5. Required value per item: OD600 change.
1. CCC(=O)Nc1ccc2c(c1)nc(CCN1CCN(c3ccccn3)CC1)n2C
2. Cc1n[nH]c(C)c1S(=O)(=O)N1CCCC(C(=O)Nc2ccc(Br)cc2)C1 (centres undefined)
3. S=C(NN=Cc1ccccn1)Nc1ccccn1
4. CCC(=O)N1C[C@@H](C)[C@H](OC)CN(C)C(=O)c2ccc(NC(=O)c3cc(C)on3)cc2OC[C@H]1C
5. COc1ccc2c3c(n(C)c2c1)[C@H](CO)N(S(=O)(=O)c1ccc(C)cc1)CC31CCN(C(=O)c2ccccn2)CC1

# output
1: 7.29%; 2: -8.94%; 3: 1.4%; 4: 1.75%; 5: -3.75%

Count: 2. Required value per item: OD600 change.
1. Cn1c(CCN2CCN(c3ccccn3)CC2)nc2cc(NS(=O)(=O)c3ccc(F)cc3)ccc21
2. CN(C)C(=O)c1ccc(-c2ccc(C3[C@@H]4CN(S(=O)(=O)c5cccc(Cl)c5)C[C@H]3N4)cc2)cc1 (some centres undefined)

# output
["-17%", "-4.3%"]

Count: 5. Required value per item: OD600 change.
1. CC(=O)Nc1cccc(NC(=O)c2ccc3c(c2)CCN3S(C)(=O)=O)c1
2. O=C(C1CCCC1)N1CC(=O)N2[C@@H](CO)[C@H](c3ccc(C#CC4CCCC4)cc3)[C@@H]2C1
3. CC(=O)/C(=N\Nc1ccc(Cl)cc1Cl)Sc1cccc2cccnc12
4. O=C(Nc1ccccc1)Oc1cccc2cccnc12
5. CC(C)c1ccc(NC(=O)C2CCCN(S(=O)(=O)c3cccnc3)C2)cc1 (centres undefined)

# output
7.81%
-65.7%
-0.275%
14.2%
-14.1%

Count: 4. Required value per item: OD600 change.
1. CN(c1cccc(NC(=O)c2ccc(CN3CCc4ccccc4C3)cc2)c1)S(C)(=O)=O
2. CC(=O)Nc1ccc(NC(=O)C2CCCN(S(=O)(=O)c3ccc(Cl)cc3)C2)cc1 (centres undefined)
3. C[C@@H]1CN([C@@H](C)CO)C(=O)c2cccc(NC(=O)Nc3ccc(F)cc3)c2O[C@H]1CN(C)Cc1ccc(-c2ccccc2)cc1
4. CC(C)(C)c1ccc(Oc2ccc(N)cc2)cc1

# output
1: -11.3%; 2: 9.12%; 3: -2.98%; 4: -27.1%
